Tested on: HT29 colon
Assay: NCI-60 one-dose screen, 48 h
Details: 10 µM unless noted
About 83,000 compounds went through this panel and 20% of them were active in at least one assay; those are over-represented in the sample as a whole. The source made the active and inactive calls. The calls were made as follows: active = growth percent below 10; inactive = the rest.
Outcome codes: T = active, F = inactive

Molecule	Assay System	Group Label
O=C(O)c1cn(C2CC2)c2cc(N3CCN(C(=O)N(c4ccccc4)c4nc(-c5ccccc5)cs4)CC3)c(F)cc2c1=O	HT29 colon	T
CN(C)CCNC(=O)c1ccc(-c2nc3ccc4[nH]ncc4c3c3c2C2CCC3C2)cc1 (centres undefined)	HT29 colon	F
COc1ccc2cc1Oc1ccc(cc1)C[C@H]1c3c(cc4c(c3Oc3cc5c(cc3OC)CCN(C)[C@@H]5C2)OCO4)CCN1C	HT29 colon	T
CCCCCN1C(=O)/C(=c2\sc3n(c2=O)C2C(NN=3)N(CC)C(=O)N2CC)c2ccccc21 (centres undefined)	HT29 colon	T
O=C1c2ccc3c4c5ccc(c24)C(=O)N1CCCOCCCCOCCCNCc1ccc(cc1)CNCCCOCCCCOCCCN(C3=O)C5=O	HT29 colon	T
CCSc1oc(-c2ccccc2)nc1[P+](c1ccccc1)(c1ccccc1)c1ccccc1	HT29 colon	T
CNC(=O)c1ccccc1Oc1nc(Nc2cc(OC)c(OC)c(OC)c2)ncc1Br	HT29 colon	F
Nc1c(C(=O)Nc2ccncc2)sc2nc3c(cc12)C(O)CCC3 (centres undefined)	HT29 colon	F
CCCCCOC(=O)c1c(C)[nH]c(/C=C2\N=C(c3ccc[nH]3)C=C2OC)c1C	HT29 colon	T
Cc1cc(N2CCN(CC(=O)Nc3ccc4c(ccn4C)c3)CC2)nc(N2CCCCCC2)n1	HT29 colon	F
Cc1ccc(NC(=O)Cn2cc(CN3CCN(c4ccnc5cc(Cl)ccc45)CC3)nn2)cc1	HT29 colon	F
COc1ccc(Cc2cnc(NC(=O)c3cc(C)oc3C)s2)cc1	HT29 colon	F
COc1ccccc1N1CCCCC1	HT29 colon	F
COc1cc2ncnc(Nc3ccc(F)c(Cl)c3)c2cc1OCC(=O)N1CCN(c2ccccc2)CC1	HT29 colon	F
Cc1ccc(C[P+](c2ccccc2)(c2ccccc2)c2ccccc2)cc1	HT29 colon	T
COc1ccc(NC(=O)c2sc3nc(C)c(C(=O)/C=C/c4ccccc4)cc3c2N)cc1	HT29 colon	T
O=S(=O)(Nc1ccc(Cl)c(C(F)(F)F)c1)c1ccc(-c2cnc(C3CC3)o2)cc1	HT29 colon	T
CCOC(=O)c1ccc2c(c1)nc(-c1ccccc1)n2C1CCCCC1	HT29 colon	F
CC1CCc2c(C(=O)Nc3ncc(Cc4cccc([N+](=O)[O-])c4)s3)csc2C1 (centres undefined)	HT29 colon	F
